Data origin: patent US5807535A

# ASSAY PROCEDURE: Biodistribution of compound No. 6 in mice (Table 6)
# Assay type: in vivo, Balb/c mice
# REPORTED CONDITIONS: mouse, blood, 5 min, read-out: biodistribution blood
MEASURED QUANTITY: tissue uptake at 5 min
Include the unit after the number when you answer.

The reported value for "Cc1cc(C)c(O)c(NC(=O)CN(CCN(CC(=O)O)CC(=O)Nc2cc(C)cc(C)c2O)CC(=O)O)c1" in terms of tissue uptake at 5 min is 7.83 %ID/g

----------
# ASSAY PROCEDURE: Biodistribution of 99mTc complexes in rats
# Format: in vivo, Australian Albino Wistar Rats
# REPORTED CONDITIONS: rat, stomach, rats, 30 sec, read-out: biodistribution stomach
For each of the molecules below, state its tissue uptake at 0.5 min.
Answers are plain numbers, in %ID/g.

O=C(O)CN(CCN(CC(=O)O)CC(=O)Nc1ccc(Cl)cc1O)CC(=O)Nc1ccc(Cl)cc1O ... 0.41
O=C(O)CN(CCN(CC(=O)O)CC(=O)Nc1ccccc1O)CC(=O)Nc1ccccc1O ... 0.14

Take each entry in turn and give its tissue uptake at 0.5 min.
1. CC(C)(C)c1ccc(O)c(NC(=O)CN(CCN(CC(=O)O)CC(=O)Nc2cc(C(C)(C)C)ccc2O)CC(=O)O)c1
2. Nc1ccc(O)c(NC(=O)CN(CCN(CC(=O)O)CC(=O)Nc2cc(N)ccc2O)CC(=O)O)c1

Result:
1.04
0.47
